The origin of these recorded values is ChEMBL document CHEMBL1806382.

test: Inhibition of serotonin receptor
readout.label: IC50

Query: Could you tell me which IC50 is on file for `CN(C)CCn1cc2c3c(cccc31)C1=C[C@@H](C(=O)N3CCCC3)CN(C(=O)Nc3ccccc3)[C@@H]1C2` ?
Result: > 2500 nM

###

molecular target: C-X-C chemokine receptor type 3 (Mus musculus); experiment: Antagonist activity at mouse CXCR3 expressed in mouse L1.2 cells assessed as inhibition of ITAC-induced calcium mobilization by FLIPR assay
Sequence (O88410 whole entry): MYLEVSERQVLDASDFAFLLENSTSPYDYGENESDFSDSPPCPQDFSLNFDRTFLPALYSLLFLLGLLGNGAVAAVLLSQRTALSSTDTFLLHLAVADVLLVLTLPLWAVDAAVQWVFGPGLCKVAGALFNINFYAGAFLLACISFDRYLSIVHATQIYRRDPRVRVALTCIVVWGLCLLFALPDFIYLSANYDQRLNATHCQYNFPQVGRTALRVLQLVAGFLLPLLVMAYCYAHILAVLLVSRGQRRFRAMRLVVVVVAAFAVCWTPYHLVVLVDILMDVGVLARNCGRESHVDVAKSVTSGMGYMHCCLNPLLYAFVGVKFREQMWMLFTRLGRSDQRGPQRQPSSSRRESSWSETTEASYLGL
Recorded pIC50 for the following molecules
Scale explanation: pIC50 corresponds to minus log10 of a concentration expressed in moles per litre.

Example entries and their recorded answers appear below.
O=C([C@@H]1C=C2c3cccc4[nH]cc(c34)C[C@H]2N(C(=O)NC2CCCC2)C1)N1CCCC1
7.09
CN(C)CCn1cc2c3c(cccc31)C1=C[C@@H](C(=O)N3CCCC3)CN(C(=O)Nc3ccccc3)[C@@H]1C2
8.70
CN(C)C(=O)[C@@H]1C=C2c3cccc4[nH]cc(c34)C[C@H]2N(C(=O)Nc2ccccc2)C1
8.00
O=C([C@@H]1C=C2c3cccc4[nH]cc(c34)C[C@H]2N(C(=O)Nc2ccccc2F)C1)N1CCCC1
7.80

Query: Endpoint output: pIC50 of `O=C([C@@H]1C=C2c3cccc4[nH]cc(c34)C[C@H]2N(C(=O)Nc2ccccc2)C1)N1C=CCCC1` . Value?
Result: 8.70

Query: Consider the molecule shown here: `O=C([C@@H]1C=C2c3cccc4[nH]cc(c34)C[C@H]2N(C(=O)NC2CCCCC2)C1)N1CCCC1` What is its recorded pIC50?
Result: 7.51

Query: Reported pIC50 for `O=C([C@@H]1C=C2c3cccc4[nH]cc(c34)C[C@H]2N(C(=O)Nc2ccccc2)C1)N1CCNCC1` : what is it?
Result: 5.76

Query: Could you tell me which pIC50 is on file for `O=C([C@@H]1C=C2c3cccc4[nH]cc(c34)C[C@H]2N(C(=O)Nc2ccccc2)C1)N1CCC1` ?
Result: 7.85

Query: Returns the measured pIC50 for the input molecule. Input: `CN(CCO)C(=O)[C@@H]1C=C2c3cccc4[nH]cc(c34)C[C@H]2N(C(=O)Nc2ccccc2)C1`
Result: 8.05

Query: Any idea what its pIC50 is? The molecule is `O=C([C@@H]1C=C2c3cccc4c3c(cn4CCN3CCCC3)C[C@H]2N(C(=O)Nc2ccccc2)C1)N1CCCC1`
Result: 8.70

###

assay: Inhibition of dopamine receptor
readout.label: IC50

Query: What measured IC50 goes with `CN(C)CCn1cc2c3c(cccc31)C1=C[C@@H](C(=O)N3CCCC3)CN(C(=O)Nc3ccccc3)[C@@H]1C2` ?
Result: > 2.5 µM

###

experiment: Terminal half life in Sprague-Dawley rat at 1 mg/kg, iv and 3 mg/kg, po; assay type: ADME, organism-based; conditions: in vivo, read-out: beta t1/2 (converted)
readout.label: half-life (h)
Field format: number, assumed h, no unit text.

Query: Request the reported half-life associated with `CN(C)CCn1cc2c3c(cccc31)C1=C[C@@H](C(=O)N3CCCC3)CN(C(=O)Nc3ccccc3)[C@@H]1C2`
Result: 8.9

###

Target: C-X-C chemokine receptor type 3 (Homo sapiens)
Sequence (P49682 whole entry): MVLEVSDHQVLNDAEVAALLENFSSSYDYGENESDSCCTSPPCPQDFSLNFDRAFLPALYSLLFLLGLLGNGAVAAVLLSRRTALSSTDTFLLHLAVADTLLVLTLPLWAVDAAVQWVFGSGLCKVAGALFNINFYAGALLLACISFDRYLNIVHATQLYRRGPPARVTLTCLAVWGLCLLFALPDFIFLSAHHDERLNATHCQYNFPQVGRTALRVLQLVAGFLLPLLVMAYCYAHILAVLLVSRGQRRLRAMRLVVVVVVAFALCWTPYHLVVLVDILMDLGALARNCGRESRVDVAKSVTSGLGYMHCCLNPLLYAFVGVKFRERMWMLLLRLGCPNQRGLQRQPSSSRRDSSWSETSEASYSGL
Assay: Displacement of radiolabeled CXCL11 from human CXCR3 expressed in CHO cells by scintillation proximity assay
Assay type: cell-based
readout.label: IC50 (nM)
The reply should be a number in nM, with the unit left off.

Sample records with IC50:
O=C([C@@H]1C=C2c3cccc4[nH]cc(c34)C[C@H]2N(C(=O)Nc2ccccc2)C1)N1CC[C@@H](O)C1
61
O=C([C@@H]1C=C2c3cccc4[nH]cc(c34)C[C@H]2N(C(=O)Nc2ccccc2)C1)N1CC[C@@H](O)[C@@H](O)C1
50
O=C1CN(C(=O)[C@@H]2C=C3c4cccc5[nH]cc(c45)C[C@H]3N(C(=O)Nc3ccccc3)C2)CCN1
255

Lab note: next molecule to report on.
Query: Give its IC50 value. Item: `O=C([C@@H]1C=C2c3cccc4[nH]cc(c34)C[C@H]2N(C(=O)Nc2cccs2)C1)N1CCCC1`
Result: 37
